Data provenance: PubChem BioAssay (NCI)

# System: MALME-3M melanoma
# test: NCI-60 one-dose screen, 48 h (100 = growth as untreated, 0 = no growth, -100 = all killed)
# conditions_used: 10 µM unless noted
Compounds without any hit were thinned out: in the full panel of roughly 83,000, 20% have a hit.
// returns not met unless growth is strictly below 90%, in which case met

[[record]]
compound = "O=[N+]([O-])c1cccc(CN(Cc2cccc([N+](=O)[O-])c2O)c2ccccc2)c1O"
category_label = "met"

[[record]]
compound = "OCCNc1nc(NCCO)nc(Nc2ccc(C3=NN(c4cc(Cl)cc(Cl)c4)C(c4ccccc4)C3)cc2)n1 (stereo not given)"
category_label = "met"

[[record]]
compound = "CCCn1cc(/C=N\\N=C2\\C(=O)Nc3ccc(C)cc32)c2ccccc21"
category_label = "met"

[[record]]
compound = "Nc1c(C(=O)Nc2ccccn2)sc2nc3c(cc12)CCCCC3"
category_label = "met"

[[record]]
compound = "Nc1c(C(=O)Nc2ccccn2)sc2nc3c(cc12)CCCC3"
category_label = "met"

[[record]]
compound = "NCCCn1c2c(c3cc(-c4ccn[nH]4)ccc3c1=O)C(=O)c1ccccc1-2"
category_label = "met"

[[record]]
compound = "COc1ccccc1-c1ccc2nc(NC(=O)Nc3cc(C(F)(F)F)cc(C(F)(F)F)c3)sc2c1"
category_label = "met"

[[record]]
compound = "NCCN1CCNCC1"
category_label = "not met"

[[record]]
compound = "COc1ccc(/C=C/C(=O)C(CC2CCC2)C(=O)/C=C/c2ccc(OC)c(OC)c2)cc1OC"
category_label = "met"

[[record]]
compound = "COc1ccc2[nH]c3nc4cnccc4cc3c2c1"
category_label = "not met"

[[record]]
compound = "Cc1cc(C)c(NC(=O)c2sc3nc4c(cc3c2N)CCCCCC4)c(C)c1"
category_label = "met"

[[record]]
compound = "C=C(C)[C@@H]1CCC=C2CC[C@]3(C)[C@H](CC[C@@H]4[C@@]5(C)CCCNC(C)(C)[C@@H]5CC[C@]43C)[C@H]21"
category_label = "met"

[[record]]
compound = "CCOC(=O)c1sc(/N=C2\\NC(=O)/C(=C/c3ccc(N4CCN(C)CC4)cc3)S2)nc1C"
category_label = "not met"

[[record]]
compound = "COc1cc2nc3c(=O)n(CCN(C)C)cnn3c(=O)c2cc1OC"
category_label = "not met"

[[record]]
compound = "CCCCCCC/C=C/[C@H]1O[C@]23C(=O)C[C@@]4(C[C@@H](OC5OC(CO)C(O)C(O)C5O)C[C@@H]4[C@H]2C=C1C)OC3=O (stereo not given in full)"
category_label = "met"

[[record]]
compound = "O=C1[C@@H](OS(=O)(=O)CC(F)(F)F)[C@H](c2ccc(F)cn2)N1c1cc2c3ccccc3ccc2c2ccccc12"
category_label = "not met"

[[record]]
compound = "O=C1CCC23OC(C(O)c4ccccc4N12)C1C(Br)=NOC13 (stereo not given)"
category_label = "not met"

